Molecular target: T1, recombinant human protein hHER2 (R&D Systems) (human, UniProt P04626 23-652)
T1 construct: also called human HER2 (hHER2) recombinant protein
Test: BLI (Octet), hHER2 on Protein A biosensors, 1:1 fit
value-kind: pKd
Give bare numbers, as −log10 of the molar value.

Lab note: measured pKd of affitin Aff02-0 (designed binder, also called unlabeled Aff02-0 affitin) MRGSHHHHHHGSVKVKFWGAGVEKEVDTSKITWVTRSGKYVIFTYDDNGKAGPGRVPEKDAPKELLDMLARAEREK was 7.74
